- studySystem: hcy129.1
- Construct: N-terminal hexahistidine tag; 4 mutations compared to the original design
- protocolDetails: Isothermal titration calorimetry of purified designs with unlabelled ligand at 25 °C, single-site fit; 1% DMSO for cortisol, 5% DMSO for warfarin and apixaban, HEPES pH 8 for rocuronium.
- Type: binding
- measurementConditions: read-out: KD (μM) ITC
observedProperty: Kd (µM)

C[C@]12CCC(=O)C=C1CC[C@@H]1[C@@H]2[C@@H](O)C[C@@]2(C)[C@H]1CC[C@]2(O)C(=O)CO [cortisol, cortisol (HCY)] | 0.068

----------
- studySystem: apx1501
- Construct: N-terminal hexahistidine tag; original design
- protocolDetails: Isothermal titration calorimetry at 25 °C with warfarin or apixaban, 5% DMSO in all solutions, single-site binding model.
- measurementConditions: read-out: KD (μM), ITC, warfarin and apixaban
- Description: Binding affinity of designed proteins was assessed by titrating purified protein with ligand using a microcal PEAQ ITC-Automated instrument. Both protein and ligand were prepared in identical buffers that were degassed by bottle-top filtration. […] Resulting titration data were analyzed with the Malvern Panalytical ITC Analysis software, and a single-site binding model was used to fit the resulting data.
observedProperty: Kd (µM)

COc1ccc(-n2nc(C(N)=O)c3c2C(=O)N(c2ccc(N4CCCCC4=O)cc2)CC3)cc1 | 5.5

----------
- studySystem: hcy129.1
- Construct: N-terminal hexahistidine tag; 4 mutations compared to the original design
- protocolDetails: Isothermal titration calorimetry at 25 °C with cortisol, 1% DMSO in all solutions, single-site binding model.
- measurementConditions: read-out: KD (μM), ITC, cortisol
observedProperty: Kd (µM)

C[C@]12CCC(=O)C=C1CC[C@@H]1[C@@H]2[C@@H](O)C[C@@]2(C)[C@H]1CC[C@]2(O)C(=O)CO [cortisol, cortisol (HCY)] | 0.065
